test_target: KRAS G13D (Homo sapiens, UniProt P01116, G13D)
Sequence (P01116 with tags, fused parts or gaps isoform P01116-2 G13D): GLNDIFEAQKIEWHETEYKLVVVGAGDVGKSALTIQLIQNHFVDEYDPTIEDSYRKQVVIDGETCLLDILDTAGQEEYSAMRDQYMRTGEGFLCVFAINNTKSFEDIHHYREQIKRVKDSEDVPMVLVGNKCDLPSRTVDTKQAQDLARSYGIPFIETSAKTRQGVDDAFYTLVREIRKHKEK
protocol_summary: SOS-catalyzed nucleotide exchange assay, KRAS G13D (Procedure A)
Format: biochemical
condition_context: GNE
pIC50: −log10 of the molar value.
property_name: pIC50

compound="Cc1cc2[nH]ncc2c(-c2nccc3c2sc2nc(OC[C@@]45CCCN4C[C@H](F)C5)nc(N4CC5COCC(C4)N5)c23)c1C(F)(F)F [Ex-65]" value_reported=5.56
compound="Cc1cc2[nH]nc(C#N)c2c(-c2nccc3c4c(N5C[C@H]6CC[C@@H](C5)N6)nc(OC[C@@]56CCCN5C[C@H](F)C6)nc4n(C)c23)c1C(F)F (single isomer, unassigned) [Ex-4]" value_reported=5.40
compound="Cc1cc2[nH]ncc2c(-c2nccc3c4c(N5CC[C@H]6NCC[C@H]65)nc(OC[C@@]56CCCN5C[C@H](F)C6)nc4n(C)c23)c1C(F)(F)F [Ex-66]" value_reported=5.82
compound="C#Cc1c(F)ccc2cc(O)cc(-c3nccc4c5c(N6C[C@H]7CC[C@@H](C6)N7)nc(OC[C@@]67CCCN6C[C@H](F)C7)nc5n(C)c34)c12 [Ex-8]" value_reported=7.75

P: C#Cc1cccc2cccc(-c3nccc4c3sc3nc(OC[C@@]56CCCN5C[C@H](F)C6)nc(N5C[C@H]6CC[C@@H](C5)N6)c34)c12 [Ex-10]
Q: Cc1cc2[nH]ncc2c(-c2nccc3c4c(N5C[C@H]6CC[C@@H](C5)N6)nc(OC[C@@]56CCCN5C[C@H](F)C6)nc4n(C)c23)c1C(F)(F)F (single isomer, unassigned) [Ex-1]
R: Fc1ccc2cc3[nH]ncc3c(-c3nccc4c3sc3nc(OC[C@@]56CCCN5C[C@H](F)C6)nc(N5C[C@H]6CC[C@@H](C5)N6)c34)c2c1Cl [Ex-59]
S: Cc1cc2[nH]ncc2c(-c2nccc3c2sc2nc(OC[C@@]45CCCN4C[C@H](F)C5)nc(N4CCC5CCC(C4)N5)c23)c1C(F)(F)F (some centres unmarked) [Ex-72]
List by increasing pIC50. Thanks in advance for listing the labels in the requested order. S, Q, P, R
(S: 5.58, Q: 5.78, P: 6.22, R: 6.58)
